System: parental wild-type Ba/F3 cells
test: Ba/F3 (WT) cell proliferation assay (Alamar Blue)
Assay type: cell-based
assayContext: Mus musculus, BaF3; 72 hours, Alamar Blue; read-out: BaF3 WT prolif
measurementKind: pIC50
A value of pIC50 is the negative decimal logarithm of a concentration given in moles per litre.

Prompt: pIC50 lookup needed for O=C(NCC(F)(F)F)Nc1cccc(-c2cnc3cc(-c4ccc(NCCO)nn4)ccn23)c1 [Example 67] , thanks.
Completion: 5.68

Prompt: pIC50 lookup needed for CNC(=O)c1ccnc(-c2ccn3c(-c4cccc(NC(=O)NCC(F)(F)F)c4)cnc3c2)n1 [Example 220] , thanks.
Completion: 5.82

Prompt: pIC50 lookup needed for O=C(NCC(F)(F)F)Nc1cccc(-c2cnc3cc(-c4nnc(C(F)(F)F)s4)ccn23)c1 [Example 17] , thanks.
Completion: 7.25

Prompt: pIC50 lookup needed for Nc1cc(C(F)(F)F)nc(-c2ccn3c(-c4cccc(NC(=O)NCC(F)(F)F)c4)cnc3c2)n1 [Compound 322] , thanks.
Completion: 5.92

Prompt: pIC50 lookup needed for N#Cc1ccnc(-c2ccn3c(-c4cccc(NC(=O)NCC(F)(F)F)c4)cnc3c2)n1 [Compound 253] , thanks.
Completion: 5.74

Prompt: pIC50 lookup needed for CC(C)(O)c1cccc(-c2ccn3c(-c4cccc(NC(=O)NCC(F)(F)F)c4)cnc3c2)c1 [Compound 320] , thanks.
Completion: 6.15

Prompt: pIC50 lookup needed for CC(C)(O)c1ccc(-c2ccn3c(-c4cccc(NC(=O)NCC(F)(F)F)c4)cnc3c2)cc1 [Compound 321] , thanks.
Completion: 6.34

Prompt: pIC50 lookup needed for CSc1nc(N)cc(-c2ccn3c(-c4cccc(NC(=O)NCC(F)(F)F)c4)cnc3c2)n1 [Example 205] , thanks.
Completion: 5.01

----------
Kindly supply the reported pIC50 values for the records listed here.
Tested on: parental wild-type Ba/F3 cells
test: Ba/F3 (WT) cell proliferation assay (Alamar Blue)
Type: cell-based
assayContext: Mus musculus, BaF3; 72 hours, Alamar Blue; read-out: BaF3 WT prolif
A value of pIC50 is the negative decimal logarithm of a concentration given in moles per litre.

Prompt: pIC50 lookup needed for NC1CCN(c2ccc(-c3ccn4c(-c5cccc(NC(=O)NCC(F)(F)F)c5)cnc4c3)cn2)CC1 , thanks.
Completion: 6.25

Prompt: pIC50 lookup needed for O=C(NCC(F)(F)F)Nc1cccc(-c2cnc3cc(/C=C/CO)ccn23)c1 , thanks.
Completion: 5.54

Prompt: pIC50 lookup needed for COCc1cc(-c2ccn3c(-c4cccc(NC(=O)NCC(F)(F)F)c4)cnc3c2)nc(N)n1 , thanks.
Completion: 6.13

Prompt: pIC50 lookup needed for O=C(NCC(F)(F)F)Nc1cccc(-c2cnc3cc(-c4ccc(N5CCCCC5)nn4)ccn23)c1 , thanks.
Completion: 6.07

Prompt: pIC50 lookup needed for Cc1cnc(-c2ccn3c(-c4cccc(NC(=O)NCC(F)(F)F)c4)cnc3c2)cn1 , thanks.
Completion: 7.37

Prompt: pIC50 lookup needed for O=C(NCC(F)(F)F)Nc1cccc(-c2cnc3cc(-c4cnccn4)ccn23)c1 , thanks.
Completion: 6.89

Prompt: pIC50 lookup needed for O=C(NCC(F)(F)F)Nc1cccc(-c2cnc3cc(-c4cc(C(F)(F)F)ncn4)ccn23)c1 , thanks.
Completion: 5.44

Prompt: pIC50 lookup needed for O=C(NCC(F)(F)F)Nc1cc(-c2cnc3cc(-c4ncccn4)ccn23)cc(C(F)(F)F)c1 , thanks.
Completion: 5.55

----------
System: LP-1 cell line (FGF-1/Heparin induced pERK)
test: Cell-based pERK ELISA, LP-1 cells
assayContext: Homo sapiens, LP-1, read-out: LP-1 pERK ELISA (μM)
Counter-ions that a name gives are not always drawn.
measurementKind: IC50 (µM)
Please respond with the number in µM and leave the unit unwritten.

Prompt: IC50 lookup needed for O=C(NCC(F)(F)F)Nc1cccc(-c2cnc3cc(-c4nccnn4)ccn23)c1 , thanks.
Completion: 0.11

Prompt: IC50 lookup needed for NC(=O)Nc1cccc(-c2cnc3cc(-c4ccc(F)cc4)ccn23)c1 , thanks.
Completion: 0.086

Prompt: IC50 lookup needed for CNc1nc(-c2ccn3c(-c4cccc(NC(=O)NCC(F)(F)F)c4)cnc3c2)ncc1F , thanks.
Completion: 0.091

Prompt: IC50 lookup needed for NCCNc1nc(-c2ccn3c(-c4cccc(NC(=O)NCC(F)(F)F)c4)cnc3c2)ncc1F , thanks.
Completion: 2.5

Prompt: IC50 lookup needed for O=C(NCC(F)(F)F)Nc1cccc(-c2cnc3cc(-c4ccccn4)ccn23)c1 , thanks.
Completion: 0.0088

Prompt: IC50 lookup needed for CCOc1cccc(-c2ccn3c(-c4cccc(NC(=O)NCC(F)(F)F)c4)cnc3c2)n1 [Example 99, bis-hydrochloride] , thanks.
Completion: 0.063

Prompt: IC50 lookup needed for CN1CCN(c2ncc(-c3ccn4c(-c5cccc(NC(=O)NCC(F)(F)F)c5)cnc4c3)cn2)CC1 [Example 79, bis-formate] , thanks.
Completion: 0.035

Prompt: IC50 lookup needed for O=C(NCC(F)(F)F)Nc1cccc(-c2cnc3cc(-c4ccc(NCCO)nn4)ccn23)c1 , thanks.
Completion: 0.84

Prompt: IC50 lookup needed for Cc1ccc(-c2ccn3c(-c4cncc(NC(=O)NCC(F)(F)F)c4)cnc3c2)nn1 , thanks.
Completion: 0.41

Prompt: IC50 lookup needed for COc1ncc(-c2ccn3c(-c4cccc(NC(=O)NCC(F)(F)F)c4)cnc3c2)cc1C , thanks.
Completion: 0.09

Prompt: IC50 lookup needed for Cc1cncc(-c2ccn3c(-c4cccc(NC(=O)NCC(F)(F)F)c4)cnc3c2)n1 , thanks.
Completion: 0.09

Prompt: IC50 lookup needed for CNc1ncc(-c2ccn3c(-c4cccc(NC(=O)NCC(F)(F)F)c4)cnc3c2)cc1C , thanks.
Completion: 0.01

Prompt: IC50 lookup needed for O=C(NCC(F)(F)F)Nc1cccc(-c2cnc3cc(-c4ncc(F)cn4)ccn23)c1 [Example 60, hydrochloride] , thanks.
Completion: 0.087

Prompt: IC50 lookup needed for Nc1nc(-c2ccn3c(-c4cncc(NC(=O)NCC(F)(F)F)c4)cnc3c2)ncc1F , thanks.
Completion: 0.43

Prompt: IC50 lookup needed for Nc1cnc(-c2ccn3c(-c4cccc(NC(=O)NCC(F)(F)F)c4)cnc3c2)cn1 [Example 85, formate] , thanks.
Completion: 0.065

Prompt: IC50 lookup needed for O=C(NCC(F)(F)F)Nc1cccc(-c2cnc3cc(-c4ccc(N5CCC5)nn4)ccn23)c1 [Example 82, hydrochloride] , thanks.
Completion: 0.0067

----------
Test system: parental wild-type Ba/F3 cells
test: Ba/F3 (WT) cell proliferation assay (Alamar Blue)
Format: cell-based
assayContext: Mus musculus, BaF3; 72 hours, Alamar Blue; read-out: BaF3 WT prolif
measurementKind: pIC50
A value of pIC50 is the negative decimal logarithm of a concentration given in moles per litre.

Prompt: pIC50 lookup needed for O=C(NCC(F)(F)F)Nc1cccc(-c2cnc3cc(/C=C/c4ccccn4)ccn23)c1 , thanks.
Completion: 6.49

Prompt: pIC50 lookup needed for O=C(NCC(F)(F)F)Nc1cncc(-c2cnc3cc(C#CC4CC4)ccn23)c1 , thanks.
Completion: 5.51

Prompt: pIC50 lookup needed for O=C(NCC(F)(F)F)Nc1cc(OC2CCCC2)cc(-c2cnc3cc(-c4ncccn4)ccn23)c1 , thanks.
Completion: 5.47

Prompt: pIC50 lookup needed for NC(=O)Nc1cccc(-c2cnc3cc(-c4ccc(F)cc4)ccn23)c1 , thanks.
Completion: 5.25

Prompt: pIC50 lookup needed for O=C(NCC(F)(F)F)Nc1cccc(-c2cnc3cc(-c4ccc(Cl)nn4)ccn23)c1 , thanks.
Completion: 6.49

Prompt: pIC50 lookup needed for CS(=O)(=O)N1CCC(n2cc(-c3ccn4c(-c5cccc(NC(=O)NCC(F)(F)F)c5)cnc4c3)cn2)CC1 , thanks.
Completion: 6.09

Prompt: pIC50 lookup needed for CN1CCN(c2ccc(-c3ccn4c(-c5cccc(NC(=O)NCC(F)(F)F)c5)cnc4c3)nn2)CC1 , thanks.
Completion: 5.43

Prompt: pIC50 lookup needed for COc1cnc(-c2ccn3c(-c4cccc(NC(=O)NCC(F)(F)F)c4)cnc3c2)cn1 , thanks.
Completion: 7.01

----------
System: parental wild-type Ba/F3 cells
test: Ba/F3 (WT) cell proliferation assay (Alamar Blue)
Type: cell-based
assayContext: Mus musculus, BaF3; 72 hours, Alamar Blue; read-out: BaF3 WT prolif
pIC50: −log10 of the molar value.
# cutoff 6 applies to pIC50; >= gives 1 (yes), < gives 0 (no)

Prompt: Assess whether reported pIC50 for Nc1nc(-c2ccn3c(-c4cccc(NC(=O)NCC(F)(F)F)c4)cnc3c2)ncc1C(F)(F)F sits at 6 or higher.
Completion: 0 (no)

Prompt: Assess whether reported pIC50 for O=C(NCC(F)(F)F)Nc1cccc(-c2cnc3cc(-c4ccnc(-n5ccnc5)n4)ccn23)c1 sits at 6 or higher.
Completion: 0 (no)

Prompt: Assess whether reported pIC50 for Cc1cc(-c2ccn3c(-c4cccc(NC(=O)NCC(F)(F)F)c4)cnc3c2)nc(C(F)(F)F)n1 sits at 6 or higher.
Completion: 1 (yes)

Prompt: Assess whether reported pIC50 for O=C(NCC(F)(F)F)Nc1cccc(-c2cnc3cc(-c4nc5c(s4)CCC5)ccn23)c1 sits at 6 or higher.
Completion: 1 (yes)

The reported numbers originate from patent US8796244B2.
